Molecular target: GluR21 receptors (Rattus norvegicus)
Sequence (P19491 22-883 isoform P19491-2 limits assumed): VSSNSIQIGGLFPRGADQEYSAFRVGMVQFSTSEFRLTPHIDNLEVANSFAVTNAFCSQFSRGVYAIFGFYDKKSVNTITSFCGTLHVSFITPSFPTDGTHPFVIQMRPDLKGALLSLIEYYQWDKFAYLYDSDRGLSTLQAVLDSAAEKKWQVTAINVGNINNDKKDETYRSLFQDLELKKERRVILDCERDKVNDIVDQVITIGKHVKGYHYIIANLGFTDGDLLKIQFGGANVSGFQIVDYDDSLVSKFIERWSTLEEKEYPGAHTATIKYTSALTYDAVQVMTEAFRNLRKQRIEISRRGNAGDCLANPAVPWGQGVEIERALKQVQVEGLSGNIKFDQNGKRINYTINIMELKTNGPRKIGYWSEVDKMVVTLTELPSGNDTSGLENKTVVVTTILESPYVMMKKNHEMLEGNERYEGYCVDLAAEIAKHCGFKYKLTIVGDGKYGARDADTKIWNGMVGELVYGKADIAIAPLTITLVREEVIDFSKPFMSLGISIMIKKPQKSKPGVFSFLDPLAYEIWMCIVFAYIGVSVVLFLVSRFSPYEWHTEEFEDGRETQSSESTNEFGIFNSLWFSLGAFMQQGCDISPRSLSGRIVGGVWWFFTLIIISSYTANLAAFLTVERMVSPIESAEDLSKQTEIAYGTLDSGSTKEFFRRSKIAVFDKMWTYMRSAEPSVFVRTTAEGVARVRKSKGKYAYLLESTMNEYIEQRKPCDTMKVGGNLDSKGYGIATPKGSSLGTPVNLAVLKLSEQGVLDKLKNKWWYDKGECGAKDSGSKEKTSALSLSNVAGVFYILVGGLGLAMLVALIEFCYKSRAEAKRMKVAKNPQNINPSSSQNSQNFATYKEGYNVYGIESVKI
Assay: Whole-cell recording, potentiation of steady-state glutamate-induced currents
Assay type: cell-based
Conditions: whole-cell mode (−60 mV), 1 mM glutamate, FIG. 18B, approximately half saturating concentration
Test readout: EC50

Entry CC(C)S(=O)(=O)NC[C@@](C)(F)c1ccc(-c2ccc([C@](C)(F)CNS(=O)(=O)C(C)C)cc2)cc1 , system GluR21 receptors (Rattus norvegicus): what EC50 was measured? ~0.05 µM
